Listing of entries alongside the reported pIC50.
Test system: HeLa
Assay: Antiproliferative activity against human HeLa cells assessed as inhibition of cell growth incubated for 48 hrs by MTT assay
Assay type: functional, cell-based
Lab note — pIC50 values are minus log10 of concentrations in M.

Example entries and their recorded answers appear below.
compound=COc1cc(C(=O)n2nc(N)cc2-c2cccc(F)c2)cc(OC)c1OC data_value=6.49
compound=COc1cc(C(=O)n2nc(N)cc2-c2ccc(Br)cc2)cc(OC)c1OC data_value=6.21
compound=COc1ccc(C(=O)n2nc(N)cc2-c2ccc(C)cc2)cc1OC data_value=5.31
compound=COc1ccc(-c2cc(N)nn2C(=O)c2ccc3c(c2)OCO3)cc1OC data_value=5.31
compound=Cc1ccc(-c2cc(N)nn2C(=O)c2ccc3c(c2)OCO3)cc1 data_value=7.40
compound=COc1cccc(-c2cc(N)nn2C(=O)c2cc(OC)c(OC)c(OC)c2)c1 data_value=5.69
compound="CC(=O)O[C@H]1C(=O)[C@@]2(C)[C@H]([C@H](OC(=O)c3ccccc3)[C@]3(O)C[C@H](OC(=O)[C@H](O)[C@@H](NC(=O)c4ccccc4)c4ccccc4)C(C)=C1C3(C)C)[C@]1(OC(C)=O)CO[C@@H]1C[C@@H]2O [PACLITAXEL]" data_value=7.70
compound="COc1ccc(/C=C\\c2cc(OC)c(OC)c(OC)c2)cc1O [COMBRETASTATIN A4]" data_value=7.05
compound=COc1cc(C(=O)n2nc(N)cc2-c2cccc(Cl)c2)cc(OC)c1OC data_value=6.85
compound=COc1ccc(-c2cc(N)nn2C(=O)c2cc(OC)c(OC)c(OC)c2)cc1 data_value=6.19

Below: the item to evaluate.
Query :: // lookup pIC50 for `Nc1cc(-c2ccc(Cl)cc2)n(C(=O)c2ccc3c(c2)OCO3)n1`
Result :: 5.55

Origin of measurements: ChEMBL document CHEMBL5512613
